Test system: Caco-2
ASSAY_PROTOCOL: cell viability relative to DMSO; higher = less toxic
CONDITION_LABEL: 72 h; 1000 nM
PARAMETER_MEASURED: cell viability (%)
Give the number; % is assumed, so skip it.

INPUT: Give the reported cell viability for this molecule. COCC[n+]1c2c(n(Cc3cnccn3)c1C)C(=O)c1ccccc1C2=O
OUTPUT: 1.7

INPUT: Give the reported cell viability for this molecule. N[C@H](Cc1ccccc1)C(=O)O
OUTPUT: 95.8

INPUT: Give the reported cell viability for this molecule. CC(C)(O)CS(=O)(=O)Nc1ccc2c(c1)CCN(C(=O)COc1cccnc1)C2
OUTPUT: 4

INPUT: Give the reported cell viability for this molecule. C[C@@H]1C[C@H]2[C@@H]3CCC4=CC(=O)C=C[C@]4(C)[C@@]3(Cl)[C@@H](O)C[C@]2(C)[C@@]1(OC(=O)c1ccco1)C(=O)CCl [MOMETASONE FUROATE]
OUTPUT: 96

INPUT: Give the reported cell viability for this molecule. CCOC(=O)[C@H](CCc1ccccc1)N[C@@H](C)C(=O)N(CC(=O)O)C1Cc2ccccc2C1
OUTPUT: 111

INPUT: Give the reported cell viability for this molecule. N#Cc1ncccn1
OUTPUT: 99.3

INPUT: Give the reported cell viability for this molecule. C[C@H](NC(=O)/C(C#N)=C/c1ccc(O)c(O)c1)c1ccccc1
OUTPUT: 93.7

INPUT: Give the reported cell viability for this molecule. Cc1cc(CCC[C@H](CC(=O)NO)C(=O)N[C@H](C(=O)N[C@H](C)c2ccccc2)C(C)(C)C)ccc1-c1ccccc1
OUTPUT: 99.4

Value source: the supplement of paper PMC13380429
